Could you please report measured CC50 at 48 h for the items listed next?
Test: Cytotoxicity against mouse L929 cells after 48 hrs by resazurin assay
Type: cell-based
Conditions: read-out: LC50

CC50 at 48 h reading for CCOCCCn1c2ccc([N+](=O)[O-])cc2c(=O)n1Cc1ccccc1 : 170 µM

CC50 at 48 h reading for CCOC(=O)n1c2ccc([N+](=O)[O-])cc2c(=O)n1Cc1ccccc1 : 122 µM

CC50 at 48 h reading for COC(=O)COc1c2cc([N+](=O)[O-])ccc2nn1Cc1ccccc1 : > 256 µM

CC50 at 48 h reading for O=C(c1ccccc1)n1c2ccc([N+](=O)[O-])cc2c(=O)n1Cc1ccccc1 : 146 µM

CC50 at 48 h reading for O=[N+]([O-])c1ccc2nn(Cc3ccccc3)c(OCCBr)c2c1 : > 256 µM

CC50 at 48 h reading for COC(=O)CCOc1c2cc([N+](=O)[O-])ccc2nn1Cc1ccccc1 : > 256 µM

CC50 at 48 h reading for CC(=O)n1c2ccc([N+](=O)[O-])cc2c(=O)n1Cc1ccccc1 : > 256 µM

CC50 at 48 h reading for CN(C)C(=O)CCCn1c2ccc([N+](=O)[O-])cc2c(=O)n1Cc1ccccc1 : > 256 µM

CC50 at 48 h reading for COC(=O)Cn1c2ccc([N+](=O)[O-])cc2c(=O)n1Cc1ccccc1 : 129 µM

CC50 at 48 h reading for NC(=O)CN1c2ccc([N+](=O)[O-])cc2C(=O)N(Cc2ccccc2)C1C(N)=O (centres undefined) : > 256 µM

CC50 at 48 h reading for COC(=O)C1Nc2ccc([N+](=O)[O-])cc2C(=O)N1Cc1ccccc1 (centres undefined) : > 256 µM

CC50 at 48 h reading for C#CCn1c2ccc([N+](=O)[O-])cc2c(=O)n1Cc1ccccc1 : 195 µM

CC50 at 48 h reading for NC(=O)C1Nc2ccc([N+](=O)[O-])cc2C(=O)N1Cc1ccccc1 (centres undefined) : > 256 µM

CC50 at 48 h reading for O=[N+]([O-])c1ccc2nn(Cc3ccccc3)c(OCCO)c2c1 : > 256 µM

###

Assay: Selectivity index, ratio of LC50 for mouse L929 cells to IC50 for Trypanosoma cruzi CL-B5 lacZ epimastigotes […]
Assay type: toxicity, cell-based
Settings: read-out: Ratio LC50/IC50
RESULT_TYPE: selectivity ratio

selectivity ratio reading for C#CCn1c2ccc([N+](=O)[O-])cc2c(=O)n1Cc1ccccc1 : 18.1

selectivity ratio reading for NC(=O)CCCn1c2ccc([N+](=O)[O-])cc2c(=O)n1Cc1ccccc1 : > 8.26

selectivity ratio reading for O=[N+]([O-])c1ccc2nn(Cc3ccccc3)c(OCCCO)c2c1 : > 3.94

selectivity ratio reading for O=c1c2cc([N+](=O)[O-])ccc2n(CCO)n1Cc1ccccc1 : > 162

selectivity ratio reading for C=Cn1c2ccc([N+](=O)[O-])cc2c(=O)n1Cc1ccccc1 : 58.4

selectivity ratio reading for C=CCn1c2ccc([N+](=O)[O-])cc2c(=O)n1Cc1ccccc1 : 45.9

selectivity ratio reading for CCOC(=O)CCCOc1c2cc([N+](=O)[O-])ccc2nn1Cc1ccccc1 : > 10.2

###

Assay: Cytotoxicity against mouse L929 cells after 48 hrs by resazurin assay
Assay type: cell-based
Details: read-out: LC50
RESULT_TYPE: CC50 at 48 h

CC50 at 48 h reading for NC(=O)CCCn1c2ccc([N+](=O)[O-])cc2c(=O)n1Cc1ccccc1 : > 256 µM

CC50 at 48 h reading for O=[N+]([O-])c1ccc2nn(Cc3ccccc3)c(OCCCO)c2c1 : > 256 µM

CC50 at 48 h reading for O=c1c2cc([N+](=O)[O-])ccc2n(CCO)n1Cc1ccccc1 : > 256 µM
